Measured logP accompanies every entry in the list below.
test: 1-octanol/water distribution coefficient, log P of the compound; assay type: physicochemical
Readout kind: logP

| Compound | Readout kind | Quantitative readout |
| --- | --- | --- |
| C#CCc1c(Cl)cc(N/C=N/OC/C=C\Cl)cc1Cl | logP | 3.9 |
| CCO/N=C/Nc1cc(Cl)c([S+]([O-])CC)c(Cl)c1 (configuration not stated) | logP | 2.9 |
| CCO/N=C/Nc1cc(Cl)c(SSCC)c(Cl)c1 | logP | 5 |
| C#CCc1c(Cl)cc(N/C=N/OCOCC)cc1Cl | logP | 3.5 |
| CCO/N=C/Nc1cc(Cl)cc(Cl)c1 | logP | 3 |
| C#CCc1c(Cl)cc(N/C=N/OCCCl)cc1Cl | logP | 3.7 |
| CCO/N=C/Nc1cc(Cl)c(OC(C)C)c(Cl)c1 | logP | 4.4 |
| CCCOc1c(Cl)cc(N/C=N/OCC)cc1Cl | logP | 4.6 |
| C#CCc1c(Cl)cc(N/C=N/OC)cc1Cl | logP | 3.3 |
| CCO/N=C/Nc1cc(Cl)c(F)c(Cl)c1 | logP | 4 |
| C#CCc1c(Cl)cc(N/C=N/Oc2ccc(C)cc2)cc1Cl | logP | 4.8 |
| CCO/N=C/Nc1cc(Cl)c(OCOC)c(Cl)c1 | logP | 3.7 |
